Assay: Toxicity liver stage against HepG2, at 10uM
Assay type: cell-based
Parameters: test concentration 10 uM, cell line HepG2-A16-CD81EGFP
Settings: human, HepG2-A16-CD81EGFP cells; read-out: INHIBITION
A collection of compounds and their measured cytotoxicity at 10 µM
REPORTED_METRIC: cytotoxicity at 10 µM (%)

{"columns": ["COMPOUND", "UNIT_OF_MEASURE", "ASSAY_VALUE"],
 "data": [
  ["CCc1cc(N2CCC(N3CCSCC3)CC2)n2nccc2n1", "%", 0.998],
  ["O=C(NCc1cncc2c1CCN(C1CCOCC1)C2)c1ccno1", "%", -2.67],
  ["CC(C)C(NC(=O)c1ccco1)C(=O)N1CCC2(CC1)OCCO2 (stereo not drawn)", "%", 6.05],
  ["Cc1ccc(NC(=O)Cn2cc(I)cn2)cc1C", "%", 5.03],
  ["CCC(CO)NC(=O)c1ccc2ccc(N(C)CC3CC3)n2c1 (stereo not drawn)", "%", 4.82],
  ["CC(C)N(CC(=O)Nc1ccc(Br)cc1Cl)Cc1cccnc1", "%", 17.2],
  ["CC(C)N1CCC(c2cccc(C(=O)N(C)C)n2)CC1", "%", 9.23],
  ["COC(=O)CN(Cc1ccccc1C)C(=O)C1CCC1", "%", -3.64],
  ["CCN1CC2(CCC1=O)CCN(Cc1cccc(OC(F)F)c1)CC2", "%", -16.5],
  ["Cc1noc2nc(C3CCCN(Cc4ccncc4)C3)cc(C(F)F)c12 (stereo not drawn)", "%", -16.7],
  ["Cn1ccc2c(NC(=O)Cn3ncc4c(c3=O)CCCCC4)cccc21", "%", 3.89],
  ["Cc1ccoc1C(=O)N1CC(C(=O)NCC2CC2)C2(CCOCC2)C1 (stereo not drawn)", "%", -3],
  ["Cc1nc(N(C)C)ncc1C(=O)NCCc1csc(-c2ccncc2)n1", "%", 1.39]
]}
